target: GST-Bcl-2 (Homo sapiens); experiment: TR-FRET binding assay, GST-Bcl-2 with F-Bak peptide probe; settings: TR-FRET Binding Affinity, GST-Bcl-2, F-Bak peptide probe
Sequence (P10415 whole entry): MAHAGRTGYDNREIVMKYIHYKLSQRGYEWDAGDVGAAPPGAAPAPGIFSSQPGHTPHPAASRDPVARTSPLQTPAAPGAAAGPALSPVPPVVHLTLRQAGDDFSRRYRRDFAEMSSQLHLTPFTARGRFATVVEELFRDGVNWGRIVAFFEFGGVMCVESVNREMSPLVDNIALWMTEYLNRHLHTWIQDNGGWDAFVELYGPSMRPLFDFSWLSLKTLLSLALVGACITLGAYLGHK
endpoint: pKi
Entry type: numeric. Quantity: pKi, the -log10 of concentration in molar units.

Task item: GET pKi | system: GST-Bcl-2 (Homo sapiens) | item: `O=C(NS(=O)(=O)c1ccc(NCCn2ccnn2)c([N+](=O)[O-])c1)c1ccc(N2CCN(Cc3ccccc3-c3ccc(Cl)cc3)CC2)cc1Oc1ccccc1`
Reply: 9.02

Task item: Tell me its pKi on GST-Bcl-2 (Homo sapiens): CC1CC(=O)NN=C1c1ccc(S(=O)(=O)NC(=O)c2ccc(N3CCN(Cc4ccccc4-c4ccc(Cl)cc4)CC3)cc2Oc2ccccc2)cc1 (centres unmarked)
Reply: 7.92

Task item: GET pKi where system = GST-Bcl-2 (Homo sapiens) and item = `CC1(C)CCC(CN2CCN(c3ccc(C(=O)NS(=O)(=O)c4ccc(NC[C@H]5CCCO5)c([N+](=O)[O-])c4)c(Oc4ccc5[nH]ccc5c4)c3)CC2)=C(c2ccc(Cl)cc2)C1`
Reply: 9.04

Task item: GET pKi | system: GST-Bcl-2 (Homo sapiens) | item: CC1(C)CCC(CN2CCN(c3ccc(C(=O)NS(=O)(=O)c4ccc(NCC5CCOCC5)c([N+](=O)[O-])c4)c(Oc4ccc5[nH]ccc5c4)c3)CC2CO)=C(c2ccc(Cl)cc2)C1 (centres unmarked)
Reply: 9.43

Task item: Fill: pKi (GST-Bcl-2 (Homo sapiens)) for this molecule CC1(C)CCC(CN2CCN(c3ccc(C(=O)NS(=O)(=O)c4cnc(OCC5CCOC5)c(Cl)c4)c(Oc4cccc5[nH]ncc45)c3)CC2)=C(c2ccc(Cl)cc2)C1 (centres unmarked)
Reply: 10.20

* * *

target: UniProtKB Q07817; assay: TR-FRET binding assay, GST-Bcl-XL with F-Bak peptide probe; details: TR-FRET Binding Affinity, GST-Bcl-XL, F-Bak peptide probe
For each record, check the reported Ki: if it is below 20 nM write 1 (yes), else write 0 (no).

Task item: Bench note: check whether CN1CCN(Nc2ccc(S(=O)(=O)NC(=O)c3ccc(N4CCN(CC5=C(c6ccc(Cl)cc6)CC(C)(C)CC5)CC4)cc3Oc3cccc4[nH]ccc34)cc2[N+](=O)[O-])CC1 [Example 190] shows Ki below 20 nM
Reply: 0 (no)

Task item: Is the reported Ki for CC1(C)CCC(CN2CCN(c3ccc(C(=O)NS(=O)(=O)c4ccc(NCC5(N)CCOCC5)c([N+](=O)[O-])c4)c(Oc4ccc5[nH]ccc5c4)c3)CC2)=C(c2ccc(Cl)cc2)C1 [Example 188] strictly below 20 nM?
Reply: 0 (no)

Task item: Record O=C(NS(=O)(=O)c1ccc(NCCCN2CCCC2)c([N+](=O)[O-])c1)c1ccc(N2CCN(CC3=C(c4ccc(Cl)cc4)CCC3)CC2)cc1Oc1cccc2[nH]ccc12 [Example 143] : is its Ki strictly below 20 nM?
Reply: 0 (no)

Task item: Determine whether this compound shows Ki lower than 20 nM (ties excluded): CC1(C)CCC(CN2CCN(c3ccc(C(=O)NS(=O)(=O)c4ccc(NC5CCN(CCn6cccn6)CC5)c([N+](=O)[O-])c4)c(Oc4ccc5[nH]ccc5c4)c3)CC2)=C(c2ccc(Cl)cc2)C1 [Example 243]
Reply: 0 (no)

Task item: Given CC1(C)CCC(CN2CCN(c3ccc(C(=O)NS(=O)(=O)c4ccc(N[C@@H]5CCN(CC#N)C5)c([N+](=O)[O-])c4)c(Oc4cccc5[nH]cnc45)c3)CC2)=C(c2ccc(Cl)cc2)C1 [Example 428] , is recorded Ki strictly lower than 20 nM?
Reply: 1 (yes)

Task item: Just wondering, is Ki of O=C(NS(=O)(=O)c1ccc(NCC2CCOCC2)c([N+](=O)[O-])c1)c1ccc(N2CCN(Cc3ccccc3-c3ccc(Cl)cc3)CC2)cc1Oc1ccc2[nH]ccc2c1 [Example 40] below 20 nM?
Reply: 0 (no)

Task item: Criterion: Ki strictly below 20 nM. Is it met by CC1(C)CCC(CN2CCN(c3ccc(C(=O)NS(=O)(=O)c4ccc(NCCN5CCNC5=O)c([N+](=O)[O-])c4)c(Oc4ccc5[nH]ccc5c4)c3)CC2)=C(c2ccc(Cl)cc2)C1 [Example 268] ?
Reply: 0 (no)

Task item: Is the reported Ki for CC1(C)CCC(CN2CCN(c3ccc(C(=O)NS(=O)(=O)c4ccc(C(=O)NCC5CCOCC5)cc4)c(Oc4ccc5[nH]ccc5c4)c3)CC2)=C(c2ccc(Cl)cc2)C1 [Example 308] strictly below 20 nM?
Reply: 0 (no)

Task item: Problem: For the compound COC1CCN(c2ccc(S(=O)(=O)NC(=O)c3ccc(N4CCN(CC5=C(c6ccc(Cl)cc6)CC(C)(C)CC5)CC4)cc3Oc3ccc4[nH]ccc4c3)cc2[N+](=O)[O-])CC1 [Example 271] , is Ki under 20 nM?
Reply: 0 (no)

Task item: Consider the compound CN(C)CCOc1cccc(-c2ccc(Cl)cc2)c1CN1CCN(c2ccc(C(=O)NS(=O)(=O)c3ccc(NCC4CCOCC4)c([N+](=O)[O-])c3)c(Oc3cccc4[nH]ccc34)c2)CC1 [Example 128] . Is its Ki strictly less than 20 nM?
Reply: 0 (no)

Task item: Input CCN(CC)C1CCC(Nc2ccc(S(=O)(=O)NC(=O)c3ccc(N4CCN(CC5=C(c6ccc(Cl)cc6)CC(C)(C)CC5)CC4)cc3Oc3cccc4[nH]ccc34)cc2[N+](=O)[O-])CC1 (centres unmarked) [Example 203] ; condition: Ki strictly below 20 nM. Does it hold?
Reply: 1 (yes)

Task item: Record CC1(C)CCC(CN2CCN(c3ccc(C(=O)NS(=O)(=O)c4ccc(NCC(F)(F)F)c([N+](=O)[O-])c4)c(Oc4cccc5[nH]ccc45)c3)CC2)=C(c2ccc(Cl)cc2)C1 [Example 343] : is its Ki strictly below 20 nM?
Reply: 0 (no)

Task item: Criterion: Ki strictly below 20 nM. Is it met by CN(C)CCCOc1ccc(S(=O)(=O)NC(=O)c2ccc(N3CCN(Cc4ccccc4-c4ccc(Cl)cc4)CC3)cc2Oc2ccccc2)cc1[N+](=O)[O-] [Example 94] ?
Reply: 1 (yes)

Task item: Say whether its Ki is strictly beneath 20 nM. Entry: CC1(C)CCC(CN2CCN(c3ccc(C(=O)NS(=O)(=O)c4ccc(NCC5(F)CCOCC5)c([N+](=O)[O-])c4)c(Oc4cccc5[nH]ncc45)c3)CC2)=C(c2ccc(Cl)cc2)C1 [Example 409]
Reply: 1 (yes)

Task item: Regarding CC(C1=C(c2ccc(Cl)cc2)CC(C)(C)CC1)N1CCN(c2ccc(C(=O)NS(=O)(=O)c3ccc(NC4CCN(C5CCOCC5)CC4)c([N+](=O)[O-])c3)c(Oc3ccc4[nH]ccc4c3)c2)CC1 (centres unmarked) [Example 258] , kindly confirm whether its Ki is beneath 20 nM.
Reply: 1 (yes)

Task item: Find out if reported Ki for O=C(NS(=O)(=O)c1ccccc1OCCN1CCCCC1)c1ccc(N2CCN(Cc3ccccc3-c3ccc(Cl)cc3)CC2)cc1Oc1ccccc1 [Example 32] is less than 20 nM
Reply: 0 (no)

Task item: Quick check: Ki of O=C(NS(=O)(=O)c1ccc(NCC2CCOCC2)c([N+](=O)[O-])c1)c1ccc(N2CCN(Cc3cc(OCCCN4CCCCC4)ccc3-c3ccc(Cl)cc3)CC2)cc1Oc1ccccc1 [Example 114] under 20 nM?
Reply: 1 (yes)

Task item: Please state whether Ki is below 20 nM for CC1(C)CCC(CN2CCN(c3ccc(C(=O)NS(=O)(=O)c4ccc(S(C)(=O)=O)cc4)c(Oc4ccc5[nH]ccc5c4)c3)CC2)=C(c2ccc(Cl)cc2)C1 [Example 382]
Reply: 0 (no)

Task item: Just wondering, is Ki of O=C(NS(=O)(=O)c1ccc(NCCc2ccncc2)c([N+](=O)[O-])c1)c1ccc(N2CCN(Cc3ccccc3-c3ccc(Cl)cc3)CC2)cc1Oc1ccccc1 [Example 169] below 20 nM?
Reply: 0 (no)

Task item: Report whether reported Ki is lower than 20 nM (strictly) for CC1(C)CCC(CN2CCN(c3ccc(C(=O)NS(=O)(=O)c4ccc(N[C@H]5CC[C@H](N6CCOCC6)CC5)c([N+](=O)[O-])c4)c(Oc4cccc5[nH]ccc45)c3)CC2)=C(c2ccc(Cl)cc2)C1 [Example 204]
Reply: 0 (no)

* * *

target: GST-Bcl-XL (Homo sapiens); assay: TR-FRET binding assay, GST-Bcl-XL with F-Bak peptide probe; conditions: TR-FRET Binding Affinity, GST-Bcl-XL, F-Bak peptide probe
Sequence (Q07817 whole entry): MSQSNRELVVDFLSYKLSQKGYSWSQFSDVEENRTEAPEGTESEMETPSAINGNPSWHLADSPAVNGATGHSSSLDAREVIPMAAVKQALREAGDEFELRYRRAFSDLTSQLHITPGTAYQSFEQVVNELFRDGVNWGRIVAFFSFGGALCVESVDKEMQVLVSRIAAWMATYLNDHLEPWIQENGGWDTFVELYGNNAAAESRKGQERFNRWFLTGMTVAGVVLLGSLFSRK
endpoint: pKi
# pKi: negative log10 of molar concentration; output just the value

Task item: Annotate the molecule `CN(C)CCOc1cccc(-c2ccc(Cl)cc2)c1CN1CCN(c2ccc(C(=O)NS(=O)(=O)c3ccc(NC4CCN(C)CC4)c([N+](=O)[O-])c3)c(Oc3cccc4[nH]ccc34)c2)CC1` with its measured pKi.
Reply: 8.45

Task item: Return value of pKi for input `CC1(C)CCC(CN2CCN(c3ccc(C(=O)NS(=O)(=O)c4ccc(NCCCN5CCS(=O)(=O)CC5)c([N+](=O)[O-])c4)c(Oc4cccc5[nH]ccc45)c3)CC2)=C(c2ccc(Cl)cc2)C1` , no commentary.
Reply: 6.96

Task item: Fill in pKi for record CC1(C)CCC(CN2CCN(c3ccc(C(=O)NS(=O)(=O)c4ccc(NC5CCS(=O)(=O)C5)c([N+](=O)[O-])c4)c(Oc4cccc5[nH]ccc45)c3)CC2)=C(c2ccc(Cl)cc2)C1 (stereo not shown)
Reply: 6.61

Task item: Item `CN(C)CCCNc1ccc(S(=O)(=O)NC(=O)c2ccc(N3CCN(Cc4ccccc4-c4ccc(Cl)cc4)CC3)cc2Oc2ccc3cc[nH]c3c2)cc1[N+](=O)[O-]` : provide pKi
Reply: 6.98

Task item: Input `COCCOCCSc1ccc(S(=O)(=O)NC(=O)c2ccc(N3CCN(CC4=C(c5ccc(Cl)cc5)CC(C)(C)CC4)CC3)cc2Oc2ccc3[nH]ccc3c2)cc1[N+](=O)[O-]` , output reported pKi.
Reply: 6.76

src = patent US9073855B2
